- MEASURED TARGET: SFRP-1 (Homo sapiens, UniProt Q8N474)
- Sequence (Q8N474 32-314): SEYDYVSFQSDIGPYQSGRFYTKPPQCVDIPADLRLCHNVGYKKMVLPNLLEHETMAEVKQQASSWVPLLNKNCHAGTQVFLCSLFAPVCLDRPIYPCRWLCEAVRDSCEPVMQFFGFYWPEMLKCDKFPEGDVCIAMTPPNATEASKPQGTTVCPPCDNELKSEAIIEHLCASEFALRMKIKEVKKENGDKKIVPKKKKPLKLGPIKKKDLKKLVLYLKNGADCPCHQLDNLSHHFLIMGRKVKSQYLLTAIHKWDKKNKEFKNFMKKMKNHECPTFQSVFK
- TEST METHOD NOTES: Cell-based assay for in vitro measurement of SFRP-1/SARP2 antagonist activity (U2OS cells co-transfected with 16x TCF-tk-Luciferase reporter, Wnt and hSFRP-1);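 note: U2OS cells co-transfected with a TCF-tk luciferase reporter, a Wnt vector, hSFRP-1 or empty vector and CMV-βgal, luciferase luminescence read in cell lysates alongside βgal activity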
- TEST CONTEXT: U2OS, read-out: Fold Induction with SFRP-1, Conc 15 μM; with SFRP-1; fold induction over SFRP-1 control, single dose
RESULT TYPE: fold induction at 15 µM

[[record]]
compound_structure_string = "Cc1ccc(S(=O)(=O)c2ccccc2)cc1S(=O)(=O)N1CCN(CC(=O)N2CCCC2)CC1"
measured_target = "SFRP-1 (Homo sapiens, UniProt Q8N474)"
result_type = "fold induction at 15 µM"
reported = 1.9

[[record]]
compound_structure_string = "COc1ccc(OC)c(S(=O)(=O)c2ccc(C)c(S(=O)(=O)NCCc3ccccn3)c2)c1"
measured_target = "SFRP-1 (Homo sapiens, UniProt Q8N474)"
result_type = "fold induction at 15 µM"
reported = 2.2

[[record]]
compound_structure_string = "COc1ccc(S(=O)(=O)c2ccccc2)cc1S(=O)(=O)NCCc1ccc(S(N)(=O)=O)cc1"
measured_target = "SFRP-1 (Homo sapiens, UniProt Q8N474)"
result_type = "fold induction at 15 µM"
reported = 1.4

[[record]]
compound_structure_string = "Cc1cc(C)c(S(=O)(=O)c2ccc(F)cc2)cc1S(=O)(=O)NC1CCOCC1"
measured_target = "SFRP-1 (Homo sapiens, UniProt Q8N474)"
result_type = "fold induction at 15 µM"
reported = 3

[[record]]
compound_structure_string = "C#CCN(CCc1ccc(OC)c(OC)c1)S(=O)(=O)c1cc(S(=O)(=O)c2ccccc2)ccc1C"
measured_target = "SFRP-1 (Homo sapiens, UniProt Q8N474)"
result_type = "fold induction at 15 µM"
reported = 2

[[record]]
compound_structure_string = "CCc1ccc(S(=O)(=O)c2ccccc2)cc1S(=O)(=O)NCCOC"
measured_target = "SFRP-1 (Homo sapiens, UniProt Q8N474)"
result_type = "fold induction at 15 µM"
reported = 2.6

